FYI, the data here is from paper PMC10981727.

Catalogue of compounds with associated pIC50
- SYSTEM_UNDER_TEST: P-gp (Homo sapiens, UniProt P08183)
- Sequence (P08183 whole entry): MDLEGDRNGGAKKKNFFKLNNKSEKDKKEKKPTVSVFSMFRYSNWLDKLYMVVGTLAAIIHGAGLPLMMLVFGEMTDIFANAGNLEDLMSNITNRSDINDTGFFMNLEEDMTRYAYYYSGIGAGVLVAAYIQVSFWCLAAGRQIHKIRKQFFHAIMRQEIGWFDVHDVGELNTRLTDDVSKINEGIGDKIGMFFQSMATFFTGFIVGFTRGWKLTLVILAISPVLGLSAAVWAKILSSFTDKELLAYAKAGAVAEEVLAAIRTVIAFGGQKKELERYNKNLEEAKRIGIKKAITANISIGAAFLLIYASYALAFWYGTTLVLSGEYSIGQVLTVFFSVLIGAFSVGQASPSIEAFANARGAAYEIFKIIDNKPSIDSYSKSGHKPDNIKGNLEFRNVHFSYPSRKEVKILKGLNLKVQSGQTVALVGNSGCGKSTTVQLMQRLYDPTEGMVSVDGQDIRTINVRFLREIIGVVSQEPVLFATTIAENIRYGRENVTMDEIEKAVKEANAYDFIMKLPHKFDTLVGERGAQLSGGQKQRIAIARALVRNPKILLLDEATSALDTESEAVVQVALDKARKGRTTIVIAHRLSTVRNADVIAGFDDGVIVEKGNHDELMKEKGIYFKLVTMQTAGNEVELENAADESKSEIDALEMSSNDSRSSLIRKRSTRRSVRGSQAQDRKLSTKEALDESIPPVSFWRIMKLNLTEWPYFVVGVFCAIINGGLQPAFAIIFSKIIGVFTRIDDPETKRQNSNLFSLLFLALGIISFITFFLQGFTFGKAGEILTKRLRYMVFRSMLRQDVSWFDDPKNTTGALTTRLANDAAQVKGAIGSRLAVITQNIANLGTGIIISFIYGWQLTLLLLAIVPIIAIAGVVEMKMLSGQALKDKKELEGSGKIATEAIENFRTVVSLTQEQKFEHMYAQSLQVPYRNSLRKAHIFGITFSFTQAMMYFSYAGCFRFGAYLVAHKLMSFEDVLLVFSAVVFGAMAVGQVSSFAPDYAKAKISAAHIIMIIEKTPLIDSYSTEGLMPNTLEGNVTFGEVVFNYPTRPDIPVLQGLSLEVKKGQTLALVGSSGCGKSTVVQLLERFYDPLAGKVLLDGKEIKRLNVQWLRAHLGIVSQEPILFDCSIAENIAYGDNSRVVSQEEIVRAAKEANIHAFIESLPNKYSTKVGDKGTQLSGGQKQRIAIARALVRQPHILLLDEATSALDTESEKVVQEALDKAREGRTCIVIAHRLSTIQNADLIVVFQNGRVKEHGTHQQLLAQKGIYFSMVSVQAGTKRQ
- PROTOCOL_SUMMARY: cell-based
Worth noting: pIC50 values are minus log10 of concentrations stated in mol/L.

Example cases with answers are listed next.
{"COMPOUND": "N#CC1=C(N)Oc2ccc3ccc(O)cc3c2C1c1ccccc1Cl (stereo not drawn)", "QUANTITATIVE_RESULT": 4.88}
{"COMPOUND": "N#CC1=C(N)Oc2ccc3ccc(O)cc3c2C1c1cccc(Cl)c1 (stereo not drawn)", "QUANTITATIVE_RESULT": 4.67}

Alright, here's another compound for you.
Returns the measured pIC50 for the input compound. Input: N#CC1=C(N)Oc2ccc3ccc(O)cc3c2C1c1ccc(F)cc1 (stereo not drawn) 4.51
